Values compiled from patent US11214803B2.

system: Yap1 mRNA; experiment: Antisense inhibition of human Yap1 in A-431 cells by cEt gapmers, single dose (Example 3, RTS36584); assay type: cell-based; settings: Table 8; A-431 cells, 5,000 cells per well, free uptake, 2,000 nM, approximately 48 hours; RTS36584; normalized to RIBOGREEN; Yap1 mRNA relative to untreated control cells
Strand notation (5' to 3'): a small letter for the sugar, then the base; units joined by * are phosphorothioate-linked, units joined directly phosphodiester-linked; [ ] holds rarer units or linkages, { } end groups; capitals alone tell only the bases. k = constrained ethyl (cEt); [5mC] = 5-methylcytosine; d = 2'-deoxy (DNA)
test.readout: YAP1 (% UTC)
Provide only the numeric value, understood in % UTC.

Below, 2 substances whose answers are already recorded.
>  <substance>
958384 (antisense k[5mC]*k[5mC]*kT*dT*d[5mC]*d[5mC]*dT*d[5mC]*dT*dG*d[5mC]*dG*d[5mC]*kG*k[5mC]*k[5mC]) [Compound 958384]

>  <target.or.system>
Yap1 mRNA

>  <YAP1 (% UTC)>
131

$$$$
>  <substance>
958415 (antisense k[5mC]*kT*kG*dT*dG*dT*dA*dG*dG*d[5mC]*dT*dG*dA*k[5mC]*kT*kT) [Compound 958415]

>  <target.or.system>
Yap1 mRNA

>  <YAP1 (% UTC)>
16

$$$$

Turning now to a further substance:
Quick check: YAP1 (% UTC) of 958394 (antisense kT*kT*kG*dA*dA*dA*d[5mC]*d[5mC]*dT*dG*dA*dT*d[5mC]*k[5mC]*kT*kT) [Compound 958394] ? 54

###

Quick list: Yap1 mRNA, % UTC per entry.
test system: Yap1 mRNA; assay: Dose-dependent inhibition of human Yap1 in A-431 cells (Example 8, 10,000 cells per well, RTS4814); format: cell-based; settings: 500.0 nM; A-431 cells, 10,000 cells per well, free uptake, approximately 48 hours, RTS4814
Strand notation (5' to 3'): a small letter for the sugar, then the base; units joined by * are phosphorothioate-linked, units joined directly phosphodiester-linked; [ ] holds rarer units or linkages, { } end groups; capitals alone tell only the bases. k = constrained ethyl (cEt); [5mC] = 5-methylcytosine; d = 2'-deoxy (DNA)
Your answer is read as % UTC, so omit the unit and give the number.

Record excerpt, results attached:
>  <substance>
1074351 (antisense kA*kT*kG*d[5mC]*dT*dT*dA*dG*dT*d[5mC]*d[5mC]*dA*d[5mC]*kT*kG*kT) [compound 1074351]

>  <Yap1 mRNA, % UTC [% UTC]>
13

$$$$
>  <substance>
1074409 (kG*kG*kA*dT*dT*dA*dA*dA*dG*dT*dA*dT*d[5mC]*kT*kT*kG; antisense) [compound 1074409]

>  <Yap1 mRNA, % UTC [% UTC]>
13

$$$$
>  <substance>
1076326 (kG*k[5mC]*kT*dA*dA*dT*dA*dA*dT*dG*dG*dA*dA*kG*kA*kG; antisense) [compound 1076326]

>  <Yap1 mRNA, % UTC [% UTC]>
6

$$$$

Entry 1074798 (kG*k[5mC]*kT*dT*dT*dG*dG*dA*dA*dG*dA*dT*d[5mC]*kT*kG*kA) [compound 1074798] : reported Yap1 mRNA, % UTC = ? 5

Same thing, different substance: 1074446 (kA*kT*kG*dA*dT*dA*dG*d[5mC]*dA*d[5mC]*dT*dA*dG*kG*kA*kG; antisense) [compound 1074446] 5

Then 1076467 (kG*kT*kA*dT*dT*dT*dA*dG*dA*dG*d[5mC]*dT*dT*kA*kA*kG; antisense) [compound 1076467] ? 3

Field entry: 1074801 (kA*k[5mC]*kA*dA*dA*dT*dA*dG*dT*dG*d[5mC]*dT*dT*kT*kG*kG; antisense) [compound 1074801] 19

Same question for 1074627 (DNA k[5mC]*k[5mC]*kT*dG*dT*dT*dA*dT*dG*dA*dA*d[5mC]*d[5mC]*k[5mC]*kT*kT; antisense) [compound 1074627] please. 3

###

test system: Yap1 mRNA; assay: Dose-dependent inhibition of human Yap1 in A-431 cells (Example 6, 5,000 cells per well, RTS4814); assay type: cell-based; settings: Table 55; 444 nM, free uptake, A-431 cells 5,000 cells per well, 48 hours, RTS4814
Strand notation (5' to 3'): a small letter for the sugar, then the base; units joined by * are phosphorothioate-linked, units joined directly phosphodiester-linked; [ ] holds rarer units or linkages, { } end groups; capitals alone tell only the bases. k = constrained ethyl (cEt); [5mC] = 5-methylcytosine; d = 2'-deoxy (DNA)
test.readout: Yap1 mRNA, % UTC (% UTC)
Record the value in % UTC, omitting the unit from your answer.

>  <substance>
716438 (antisense kA*kT*kT*dT*dT*dT*dG*dG*d[5mC]*dT*dT*dG*dT*k[5mC]*kA*kG) [compound 716438]

>  <unit.abbrev>
% UTC

>  <Yap1 mRNA, % UTC>
75

$$$$
>  <substance>
716407 (antisense k[5mC]*kT*kT*dA*dG*dT*d[5mC]*d[5mC]*dA*d[5mC]*dT*dG*dT*k[5mC]*kT*kG) [compound 716407]

>  <unit.abbrev>
% UTC

>  <Yap1 mRNA, % UTC>
75

$$$$
>  <substance>
716479 (antisense kG*kA*kA*d[5mC]*dA*dA*dT*d[5mC]*dT*dT*dG*dA*dA*kG*kG*k[5mC]) [compound 716479]

>  <unit.abbrev>
% UTC

>  <Yap1 mRNA, % UTC>
78

$$$$
>  <substance>
716419 (antisense kT*kT*kT*d[5mC]*d[5mC]*dG*dG*dT*dG*d[5mC]*dA*dT*dG*kT*kG*kT) [compound 716419]

>  <unit.abbrev>
% UTC

>  <Yap1 mRNA, % UTC>
84

$$$$
>  <substance>
716455 (antisense kG*kT*kT*dA*dT*dG*dT*dT*dT*dG*dG*dG*dT*kG*kT*kG) [compound 716455]

>  <unit.abbrev>
% UTC

>  <Yap1 mRNA, % UTC>
70

$$$$

// lookup Yap1 mRNA, % UTC | system=Yap1 mRNA | key= 716381 (kT*kG*kT*d[5mC]*dT*dG*dA*dT*d[5mC]*dG*dA*dT*dG*kT*kG*kA; antisense) [compound 716381] 90

Same lookup for 716489 (antisense kA*kG*kT*dT*dA*dA*dT*dT*d[5mC]*dA*dT*dG*d[5mC]*kT*k[5mC]*kG) [compound 716489] , please. 83

###

tested on: Yap1 mRNA; test: Antisense inhibition of human Yap1 in SNU-449 cells by modified oligonucleotides, single dose (Example 5, RTS36584); format: cell-based; settings: Table 52; Yap1 mRNA, modified oligonucleotides targeting SEQ ID NO: 1 and 2
Strand notation (5' to 3'): a small letter for the sugar, then the base; units joined by * are phosphorothioate-linked, units joined directly phosphodiester-linked; [ ] holds rarer units or linkages, { } end groups; capitals alone tell only the bases. k = constrained ethyl (cEt); [5mC] = 5-methylcytosine; d = 2'-deoxy (DNA); m = 2'-O-methyl
test.readout: YAP1 (% UT)
Show the value, then the unit it is measured in.

Reference set, count: 2
>  <substance>
1200867 (kA*kA*kG*dT*dA*mA*dG*dG*dT*dT*dT*d[5mC]*d[5mC]*k[5mC]*kA*kG; antisense) [Compound 1200867]

>  <test.result>
38 % UT

$$$$
>  <substance>
1200830 (kT*kT*kA*dG*dG*mA*dT*dG*d[5mC]*dA*dT*dG*dG*kT*kT*kT; antisense) [Compound 1200830]

>  <test.result>
50 % UT

$$$$

Given the entry 1200816 (kG*k[5mC]*kA*d[5mC]*dT*mU*dT*dT*dA*d[5mC]*dA*dT*dT*kA*kG*kG; antisense) [Compound 1200816] , report its measured YAP1 (% UT). 37 % UT

Cool, now 1200872 (kA*kG*kA*d[5mC]*dT*mA*dA*dG*dT*dA*dA*dG*dG*kT*kT*kT; antisense) [Compound 1200872] 98 % UT

// query: 1200847 (kA*kT*kT*dG*d[5mC]*mA*dA*dT*d[5mC]*dT*dG*dT*d[5mC]*kT*kG*kA; antisense) [Compound 1200847] 54 % UT

Same thing, different substance: 1200852 (kT*kG*kT*dA*dA*mU*dA*dT*dT*dG*d[5mC]*dA*dA*kT*k[5mC]*kT; antisense) [Compound 1200852] 32 % UT

###

Catalogue of body weight values
assay: Tolerability in Balb/c mice, body and organ weights (Example 14); assay type: in vivo; settings: male Balb/c mice, 50 mg/kg s.c. twice a week for four weeks (8 treatments), measured on day 25
Strand notation (5' to 3'): a small letter for the sugar, then the base; units joined by * are phosphorothioate-linked, units joined directly phosphodiester-linked; [ ] holds rarer units or linkages, { } end groups; capitals alone tell only the bases. k = constrained ethyl (cEt); [5mC] = 5-methylcytosine; d = 2'-deoxy (DNA)

// worked examples, body weight included
>  <substance>
958596 (kA*kG*k[5mC]*dA*dG*dT*dT*dA*dA*dG*d[5mC]*dA*d[5mC]*kT*kT*kT; antisense) [compound 958596]

>  <test.result>
25 g

$$$$
>  <substance>
958589 (kG*kT*kA*dA*dA*dG*dG*dA*dA*dG*dA*dT*d[5mC]*kT*k[5mC]*k[5mC]; antisense) [compound 958589]

>  <test.result>
25 g

$$$$

Now turn to the next substance.
Field request: body weight | item: 958497 (kA*kT*kA*dT*dG*dG*dA*dA*dA*dT*dT*dG*dT*k[5mC]*kT*k[5mC]) [compound 958497] 23 g
